Quick reference for pKd among some binders
target: WT Spike (SARS-CoV-2, UniProt P0DTC2 16-1213)
pKd: −log10 of the molar value.
QUANTITY_MEASURED: pKd

Ab 23 (scFv, V domains shown) VH: EVQLVQSGAEVKKPGSSVKVSCRSSGGTFSTYGITWVRQAPGQGLEWMGRIIPSLGIPNYAQKFQGRVTITADTSVSTAWMELSSLESDDTAIYYCARENIDLATNDFWGQGTLVTVSS VL: QSALTQPPSASGSPGQSVTISCTGTSRDIGAYGYVSWYQQVPGKAPKLIIYEVRNRPSGVSSRFSGSKSGNTASLTISGLQAEDEADYYCSSYTSSSTLDVVFGGGTKLTVL = 11.05
Ab 25 (scFv, V domains shown) VH: QVQLVQSGGGLVQPGGSLRLSCAASGFTFSSYWMSWVRQAPGKGLEWVANIKQDGSEKYYVDSVKGRFTISRDNAKNSLYLQMNSLRAEDTAVYYCARGFYYYGAFDIWGQGTTVTVSS VL: NFMLTQPHSVSESPGKTVTISCTGSSGSIASNYVQWYQQRPGSAPTTVIYEDNQRPSGVPDRFSGSIGSSSNSASLTISGLKTEDEADYYCQSYDSSNHWVFGGGTKLTVL = 11.05
Ab_13 (scFv, V domains shown) VH: QVTLKESGPKLVKPTQTLTLTCTFSGFSLSTSGVGVGWIRQPPGKALEWLALIYWDDDKRYSPSLKSRLTIAKDTSKYQVVLTMTNMDPVDTATYYCARISGSGYFYPFDIWGQGTMVTVSA VL: NFMLTQPHSVSESPGKTVTISCTRSSGSIASNYVQWYQQRPGSAPTTVIYEDNQRPSGVPDRFSGSIDSSSNSASLTISGLKTEDEADYYCQSYDSSNLWVFGGGTKLTVL = 11.07
